pIC50: −log10 of the molar value.
Lab note: pIC50 readings collected with CLK1 (Homo sapiens, UniProt P49759) for the following molecules.
Sequence (P49759 whole entry): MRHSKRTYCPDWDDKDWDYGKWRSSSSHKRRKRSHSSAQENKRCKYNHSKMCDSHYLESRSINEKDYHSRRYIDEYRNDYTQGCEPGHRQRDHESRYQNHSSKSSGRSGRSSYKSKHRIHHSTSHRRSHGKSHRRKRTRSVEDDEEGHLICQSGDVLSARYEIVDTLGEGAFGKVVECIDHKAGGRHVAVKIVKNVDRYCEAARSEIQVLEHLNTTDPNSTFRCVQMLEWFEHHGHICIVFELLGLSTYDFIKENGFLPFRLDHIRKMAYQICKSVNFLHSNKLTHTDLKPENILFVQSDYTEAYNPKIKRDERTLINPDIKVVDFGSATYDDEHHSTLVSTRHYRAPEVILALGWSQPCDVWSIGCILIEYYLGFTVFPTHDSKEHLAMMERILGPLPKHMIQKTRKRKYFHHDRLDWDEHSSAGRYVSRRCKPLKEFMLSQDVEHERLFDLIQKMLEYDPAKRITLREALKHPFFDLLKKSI
Value type: pIC50

* CC(C)n1cnc2ccc3nc(-c4cccnc4)sc3c2c1=O | < 5.00
* O=c1c2c(ccc3nc(-c4cnccn4)sc32)ncn1Cc1ccccc1 | 5.48
* O=c1c2c(ccc3nc(-c4cccnc4)sc32)ncn1C1CCCCC1 | < 5.00

====

Study target: CK1δ/ε
Assay comment: CK1δ/ε in vitro kinase assay (CKS peptide)
Condition description: Table 4; ATP 15 μM, triplicate; <50% inhibition at 10 μM = IC50 >10 μM
pIC50: −log10 of the molar value.
In this section, each of the molecules is paired with its reported pIC50.
Value type: pIC50

- O=c1c2c(ccc3nc(-c4cccnc4)sc32)ncn1C1CCC1 [4d]: < 5.00
- O=c1c2c(ccc3nc(-c4cccnc4)sc32)ncn1C1CC1 [4c]: 5.22
- CC(C)n1cnc2ccc3nc(-c4cccnc4)sc3c2c1=O [4b]: < 5.00
- O=c1c2c(ccc3nc(-c4cccnc4)sc32)ncn1Cc1ccccc1 [3a]: < 5.00
- Cn1cnc2ccc3nc(-c4cccnc4)sc3c2c1=O [4a]: < 5.00
- O=c1c2c(ccc3nc(-c4cnccn4)sc32)ncn1Cc1ccccc1 [3b]: < 5.00
- O=c1c2c(ccc3nc(-c4cccnc4)sc32)ncn1C1CCCCC1 [4f]: < 5.00
- O=c1c2c(ccc3nc(-c4cccnc4)sc32)ncn1C1CCCC1 [4e]: < 5.00
- COc1ccc2c(c1)[nH]c1c(C)nccc12 [Harmine, reference compound]: 5.82
- COc1ncccc1-c1nc2ccc3ncn(C4CC4)c(=O)c3c2s1 [compound 10]: < 5.00

====

Lab note: IC50 readings collected with DYRK1A (Homo sapiens, UniProt Q13627) for the following molecules.
Value type: IC50

• CC(C)n1cnc2ccc3nc(-c4cccnc4)sc3c2c1=O = > 10 µM
• O=c1c2c(ccc3nc(-c4cccnc4)sc32)ncn1Cc1ccccc1 = 0.012 µM
• O=c1c2c(ccc3nc(-c4cccnc4)sc32)ncn1C1CCC1 = > 10 µM
• COc1ncccc1-c1nc2ccc3ncn(C4CC4)c(=O)c3c2s1 = > 10 µM
• O=c1c2c(ccc3nc(-c4cccnc4)sc32)ncn1C1CCCCC1 = > 10 µM
• O=c1c2c(ccc3nc(-c4cccnc4)sc32)ncn1C1CC1 = 0.011 µM
